Documented cytotoxicity at 70.5 h across a set of molecules
Experiment: Human HepG2 cell viability assay in 384 well format
Format: toxicity, cell-based
Set-up: dose 125 nL, time 70.5 hour; concentration not given beside the values
Settings: HepG2 cells, read-out: Inhibition
OUTCOME_MEASURE: cytotoxicity at 70.5 h (%)

* O=C(NCc1ccnc(OCC(F)(F)F)c1)NCC1CCOC1 (stereo not given) | -15.8
* Cc1ccc(O)c(C(=O)N2CCCC2c2nncn2CC(C)C)c1 (stereo not given) | -0.402
* CC(C)c1cc(C(=O)N2CCC3(CCc4ccccc4C(=O)N3)C2)no1 (stereo not given) | 8.79
* CN1[C@@H](C(=O)NCC2CC2)C[C@@H]2CN(Cc3ccsc3)C[C@@H]21 | 11.3
* CCN(CC)S(=O)(=O)c1cccc(C(=O)N(C)Cc2ccsc2)c1 | 14.5
* CC(C)Cc1noc(CN(C)C[C@]2(O)CCCN3CCCC[C@@H]32)n1 | -12.8
* Cc1ccc(CN2C[C@@H]3CCCO[C@@H]3[C@H](NS(C)(=O)=O)C2)o1 | -9.45
* NC(=O)CN1CCCC(C(=O)N2CCC(O)(Cc3ccccc3)CC2)C1 (stereo not given) | -9.61
* CC(C)CN1CC(O)CN(S(=O)(=O)c2ccc(F)cc2)CC1=O (stereo not given) | -9.29
* CC(c1ccco1)N(C)Cc1cc2cc3c(cc2[nH]c1=O)OCO3 (stereo not given) | -8.06

---

Assay: Human HepG2 cell viability assay in 384 well format
Assay type: toxicity, cell-based
Parameters: dose 125 nL, time 70.5 hour; concentration not given beside the values
Settings: HepG2 cells, read-out: Inhibition
Documented cytotoxicity at 70.5 h across a set of molecules
OUTCOME_MEASURE: cytotoxicity at 70.5 h (%)

* Cc1ccc(C(=O)N2CCN(C(=O)Cc3ccccn3)CC2)c(C)c1 | -5.32
* Cc1nc(CN2CCOC3(CCCN(c4nccs4)C3)C2)cs1 (configuration not stated) | 4.12
* CC(C)NC(=O)CCCn1cnc2ccccc2c1=O | 16.8
* CN(C)C(=O)CN(C)C(=O)c1cccn1CCc1ccccc1 | -3.57
* CN(C)C(=O)Cc1nc(CN2CCCC2Cn2cccn2)cs1 (configuration not stated) | -6.16
* CN(C)CCN1CCOCC2(CCCN(C(=O)c3cccc(O)c3)C2)C1 (configuration not stated) | -2.03
* COCCOCCNC(=O)N1CCc2c(F)ccc(F)c2C1 | 2.28
* CC(C)c1nnc2sc(CC3CCS(=O)(=O)C3)nn12 (configuration not stated) | -7.56
* CN1CCCC(Cc2nccnc2Cl)CC1 (configuration not stated) | -3.4
* Cc1cc(N2CCCN3CCC[C@H]3C2)n2nc(C)c(C)c2n1 | -4.24
* CC(C(=O)NC1CC1)S(=O)(=O)Cc1csc(-c2cccs2)n1 (configuration not stated) | 11
* COC(=O)C1CN(Cc2nc(C(C)(C)C)cs2)C[C@@H](C)O1 (some centres not stated) | -7.31

---

Experiment: Human HepG2 cell viability assay in 384 well format
Format: toxicity, cell-based
Design: dose 125 nL, time 70.5 hour; concentration not given beside the values
Conditions: HepG2 cells, read-out: Inhibition
OUTCOME_MEASURE: cytotoxicity at 70.5 h (%)

• CCS(=O)(=O)CCN(C)Cc1cc(C)ccc1OC = -13.6
• CC(C)CCn1c(=O)n(CCn2cccc2)c2cc(C(=O)O)cnc21 = -7.02
• CN(CC(=O)NC(C)(C)C)Cc1nc(-c2ccccc2)c[nH]1 = 39
• Cc1cc(C)nc(N2CCC(c3cccc(CCC(=O)O)n3)CC2)n1 = -9.41
• CC(=O)N1CCOC2(CCN(C(=O)c3cnoc3C)CC2)C1 = 2.68
• CC(C)c1ccc(S(=O)(=O)NC2CCN(CC(F)(F)F)C2)cc1 (stereo unspecified) = 16.7
• CCCC(=O)N(C)Cc1nc(N2CCCC2)ncc1-c1ccncc1 = -11
• CC1CCc2n[nH]c(C(=O)NCCCc3ccco3)c2C1 (stereo unspecified) = -2.37
• COC(=O)[C@@H]1Cc2ncn(C)c2CN1S(=O)(=O)c1ccc(OC)cc1 = -3.58
• COCC(=O)N1CCC(Oc2cccc(C)c2)CC1 = -16
• CCC(Nc1nc(C)nc2onc(C)c12)c1nc(C)c(C)s1 (stereo unspecified) = 24.7
